Target: T1, human Ror2 (human, UniProt Q01974 34-403, limits assumed)
T1 construct: also called hROR2; receptor tyrosine kinase-like orphan receptor 2
T1 sequence (Q01974 34-403 limits assumed): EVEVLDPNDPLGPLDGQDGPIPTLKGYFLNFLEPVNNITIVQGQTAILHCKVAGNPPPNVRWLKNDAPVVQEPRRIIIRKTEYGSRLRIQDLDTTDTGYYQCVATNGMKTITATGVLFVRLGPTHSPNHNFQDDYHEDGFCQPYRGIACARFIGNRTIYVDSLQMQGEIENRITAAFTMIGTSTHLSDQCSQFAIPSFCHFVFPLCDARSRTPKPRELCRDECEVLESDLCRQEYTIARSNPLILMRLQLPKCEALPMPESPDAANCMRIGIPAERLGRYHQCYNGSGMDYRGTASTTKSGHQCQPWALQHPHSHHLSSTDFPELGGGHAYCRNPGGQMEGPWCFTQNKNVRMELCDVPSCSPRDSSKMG
Assay: ELISA, human Ror2, pH 6.0; further: unit not given here
Each entry below carries its recorded Affinity ELISA pH 6.0.
Metric name: Affinity ELISA pH 6.0

[
  {
    "Binder": "HC-Y111C (antibody, V domains shown) VH: EVQLQQSGPELVKPGASVKISCKTSGYTFTEYTMHWMKQSHRKSLEWIGGINTNNGGTGYNQKFKGKATLTVDKSSSTAYMELRSLTSEDSAVYFCARGSLYSYGNSYFDCWGQGTLVTVSS VL: QIVLTQSPAIMSASPGEKVTITCSATSSVSYMHWFQQKPGTSPKLWIYGTSNLASGVPARFSGSGSGTSYSLTISRMEAEDAATYYCQQRSSYPFTFGQGTKVEIK",
    "Result": 1.08
  },
  {
    "Binder": "HC-A097M (antibody, V domains shown) VH: EVQLQQSGPELVKPGASVKISCKTSGYTFTEYTMHWMKQSHRKSLEWIGGINTNNGGTGYNQKFKGKATLTVDKSSSTAYMELRSLTSEDSAVYFCMRGSLYSYGNSYFDYWGQGTLVTVSS VL: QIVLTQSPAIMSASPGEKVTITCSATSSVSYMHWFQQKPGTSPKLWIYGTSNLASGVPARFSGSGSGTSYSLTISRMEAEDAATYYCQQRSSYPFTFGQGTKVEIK",
    "Result": 1.98
  },
  {
    "Binder": "HC-D110L (antibody, V domains shown) VH: EVQLQQSGPELVKPGASVKISCKTSGYTFTEYTMHWMKQSHRKSLEWIGGINTNNGGTGYNQKFKGKATLTVDKSSSTAYMELRSLTSEDSAVYFCARGSLYSYGNSYFLYWGQGTLVTVSS VL: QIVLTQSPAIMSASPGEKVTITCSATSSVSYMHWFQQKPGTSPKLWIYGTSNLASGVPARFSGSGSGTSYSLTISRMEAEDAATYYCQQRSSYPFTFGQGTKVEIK",
    "Result": 1.68
  },
  {
    "Binder": "HC-N106E (antibody, V domains shown) VH: EVQLQQSGPELVKPGASVKISCKTSGYTFTEYTMHWMKQSHRKSLEWIGGINTNNGGTGYNQKFKGKATLTVDKSSSTAYMELRSLTSEDSAVYFCARGSLYSYGESYFDYWGQGTLVTVSS VL: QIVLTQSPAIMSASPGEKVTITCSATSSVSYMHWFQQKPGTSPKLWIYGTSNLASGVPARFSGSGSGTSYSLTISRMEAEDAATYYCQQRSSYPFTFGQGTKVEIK",
    "Result": 0.224
  },
  {
    "Binder": "HC-M034Y (antibody, V domains shown) VH: EVQLQQSGPELVKPGASVKISCKTSGYTFTEYTYHWMKQSHRKSLEWIGGINTNNGGTGYNQKFKGKATLTVDKSSSTAYMELRSLTSEDSAVYFCARGSLYSYGNSYFDYWGQGTLVTVSS VL: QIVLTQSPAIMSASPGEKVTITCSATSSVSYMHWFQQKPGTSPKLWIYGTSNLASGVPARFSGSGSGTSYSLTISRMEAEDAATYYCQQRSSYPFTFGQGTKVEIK",
    "Result": 0.903
  }
]
